The values you see were collected from patent US9796711B2.

Recorded pEC50 values for a group of molecules are listed next.
- subject-of-test: ΔF508-CFTR (Homo sapiens, UniProt P13569, DEL508-508)
- Construct: host or cells: CFBE41o-, doxycycline-inducible
- Sequence (P13569 with tags, fused parts or gaps DEL508-508): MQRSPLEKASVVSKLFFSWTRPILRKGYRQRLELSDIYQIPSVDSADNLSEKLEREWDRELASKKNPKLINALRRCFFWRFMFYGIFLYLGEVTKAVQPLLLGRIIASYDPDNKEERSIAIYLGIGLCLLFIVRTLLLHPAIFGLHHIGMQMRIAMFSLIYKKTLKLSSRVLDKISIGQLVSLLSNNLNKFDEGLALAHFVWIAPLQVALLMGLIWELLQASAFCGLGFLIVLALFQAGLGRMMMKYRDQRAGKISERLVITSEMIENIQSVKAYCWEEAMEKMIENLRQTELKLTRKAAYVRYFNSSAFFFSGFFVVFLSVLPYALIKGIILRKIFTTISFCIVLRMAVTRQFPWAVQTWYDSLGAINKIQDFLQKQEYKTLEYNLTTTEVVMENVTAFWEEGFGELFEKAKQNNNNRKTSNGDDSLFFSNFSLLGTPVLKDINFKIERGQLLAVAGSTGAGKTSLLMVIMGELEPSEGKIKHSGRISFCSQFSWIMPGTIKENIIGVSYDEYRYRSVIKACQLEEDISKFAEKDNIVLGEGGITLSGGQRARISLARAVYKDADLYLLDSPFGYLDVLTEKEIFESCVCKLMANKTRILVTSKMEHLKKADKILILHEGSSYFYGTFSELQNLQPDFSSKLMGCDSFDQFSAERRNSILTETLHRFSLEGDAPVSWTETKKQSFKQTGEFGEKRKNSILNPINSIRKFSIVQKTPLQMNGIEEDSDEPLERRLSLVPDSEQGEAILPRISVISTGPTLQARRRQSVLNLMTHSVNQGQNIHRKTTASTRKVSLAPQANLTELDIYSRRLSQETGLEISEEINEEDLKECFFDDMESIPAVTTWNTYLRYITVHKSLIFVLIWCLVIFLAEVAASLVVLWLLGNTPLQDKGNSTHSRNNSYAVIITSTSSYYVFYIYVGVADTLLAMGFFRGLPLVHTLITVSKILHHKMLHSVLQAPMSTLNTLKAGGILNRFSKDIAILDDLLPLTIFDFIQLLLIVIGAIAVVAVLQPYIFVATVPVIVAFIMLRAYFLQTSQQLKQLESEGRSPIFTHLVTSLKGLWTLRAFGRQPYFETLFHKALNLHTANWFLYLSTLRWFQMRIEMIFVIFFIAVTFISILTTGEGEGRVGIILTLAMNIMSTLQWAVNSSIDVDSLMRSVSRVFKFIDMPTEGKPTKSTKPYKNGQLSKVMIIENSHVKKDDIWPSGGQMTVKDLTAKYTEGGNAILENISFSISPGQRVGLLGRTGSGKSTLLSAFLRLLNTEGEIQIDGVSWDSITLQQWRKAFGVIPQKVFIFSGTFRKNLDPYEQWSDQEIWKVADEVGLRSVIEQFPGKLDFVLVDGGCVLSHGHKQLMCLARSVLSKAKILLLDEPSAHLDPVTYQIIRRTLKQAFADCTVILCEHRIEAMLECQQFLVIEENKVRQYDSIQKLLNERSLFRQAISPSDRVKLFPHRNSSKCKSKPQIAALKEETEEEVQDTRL
- protocol-summary: CFTR cell surface levels using HRP-tagged ΔF508-CFTR expressing CFBE cells, intrinsic corrector capacity
- Assay type: cell-based
- reported-conditions: HRP-tagged ΔF508-CFTR CFBE41o- cells, compounds alone (intrinsic corrector capacity), 20 hours at 33° C.; read-out: EC50
# log scale: pEC50 equals minus log10 of the concentration in mol/L

molecule: Cc1nn(-c2ccccc2)c2nc(C(=O)O)cc(N3CCCC4(CC4)C3)c12
subject-of-test: ΔF508-CFTR (Homo sapiens, UniProt P13569, DEL508-508)
pEC50: 5.72

molecule: Cc1nn(-c2ccccc2)c2nc(C(=O)O)cc(-c3ccc(N4CC(N(C)C)C4)cc3)c12
subject-of-test: ΔF508-CFTR (Homo sapiens, UniProt P13569, DEL508-508)
pEC50: 5.65

molecule: CC(=O)N1CC2CN(c3cc(C(=O)O)nc4c3c(C(C)C)nn4-c3cccc(C)c3)CC2C1 (stereo not drawn)
subject-of-test: ΔF508-CFTR (Homo sapiens, UniProt P13569, DEL508-508)
pEC50: 5.52

Note pEC50 for the molecule shown: `COCCCN1CCN(c2cc(C(=O)O)nc3c2c(C)nn3-c2ccccc2)CC1`
5.60

Note pEC50 for the molecule shown: `Cc1nn(-c2cccc(F)c2)c2nc(C(=O)O)cc(-c3ccc(N4CCOCC4)nc3)c12`
5.79

Note pEC50 for the molecule shown: `Cc1ccc(-n2nc(C3CCC3)c3c(-c4ccc(N5CCOCC5)cc4)cc(C(=O)O)nc32)cc1F`
6.13

Note pEC50 for the molecule shown: `CC(C)c1nn(-c2cccc(N3CCOCC3)c2)c2nc(C(=O)O)cc(-c3ccc(N4CCC(C#N)CC4)cc3)c12`
6.49

Note pEC50 for the molecule shown: `Cc1nn(-c2ccccc2)c2nc(C(=O)O)cc(OC[C@H](F)C3CCOCC3)c12`
5.86

Note pEC50 for the molecule shown: `Cc1nn(-c2ccccc2)c2nc(C(=O)O)cc(-c3ccc(N4C[C@@H]5C[C@H]4CO5)cc3)c12`
5.75

Note pEC50 for the molecule shown: `CC(C)c1nn(-c2cccc(F)c2)c2nc(C(=O)O)cc(-c3cnc(N(C)C4CCOCC4)nc3)c12`
6.25

Note pEC50 for the molecule shown: `N#CC1CCN(c2ccc(-c3cc(C(=O)O)nc4c3c(C3CCC3)nn4C3CCCCC3)cn2)CC1`
6.10

Note pEC50 for the molecule shown: `CC(C)c1nn(-c2cccc(C(F)(F)F)c2)c2nc(C(=O)O)cc(-c3ccc(N4CCC(C#N)CC4)cc3)c12`
6.15

Note pEC50 for the molecule shown: `CC1(c2nn(-c3ccccc3)c3nc(C(=O)O)cc(-c4ccc(N5CCOCC5)cc4)c23)CC1`
6.38

Note pEC50 for the molecule shown: `CO[C@@H]1CCC[C@@H](n2nc(C(C)C)c3c(-c4ccc(N5CCOCC5)cc4)cc(C(=O)O)nc32)C1`
6.09

Note pEC50 for the molecule shown: `O=C(O)c1cc(-c2ccc(N3CCOCC3)cc2)c2c(C3CCC3)nn(-c3cccc(F)c3)c2n1`
6.34
